Each recorded value in this set is attributed to PubChem BioAssay AID1918991.

- System: 186277-243-T-J2-PDC complex spheroid growth
- measurementNotes: Anticancer human tumor 186277-243-T-J2-PDC patient-derived colon adenocarcinoma cell line growth inhibition [AhR]
- conditionInfo: second compound 0.1 µM; first compound 1 µM; hits give low values
measureName: viability, T/C

Hey, quick one: what's viability, T/C for each of these?
1. COc1cc(C2c3cc4c(cc3C(OC3OC5COC(C)OC5C(O)C3O)C3COC(=O)C23)OCO4)cc(OC)c1O (stereo not drawn) + Cc1cncc(-c2nc(NCCc3c[nH]c4ccccc34)c3ncn(C(C)C)c3n2)c1
2. COc1ccc([C@@H](O)c2cc(-c3ncnc4cc(N5CCOCC5)ccc34)c(F)cc2Cl)nn1 + Cc1ccccc1N=Nc1ccc(NC(=O)c2ccnn2C)c(C)c1
3. Nc1ccn(C2OC(CO)C(O)C2(F)F)c(=O)n1 (stereo not drawn) + CC(CO)NC(=O)c1cc(-c2ccc(Cl)cc2)nn(-c2cnn(C)c2)c1=O
4. O=C(c1cc(Cc2n[nH]c(=O)c3ccccc23)ccc1F)N1CCN(C(=O)C2CC2)CC1 + Cc1cncc(-c2nc(NCCc3c[nH]c4ccccc34)c3ncn(C(C)C)c3n2)c1
5. CC1(C)CCC(CN2CCN(c3ccc(C(=O)NS(=O)(=O)c4ccc(NCC5CCOCC5)c([N+](=O)[O-])c4)c(Oc4cnc5[nH]ccc5c4)c3)CC2)=C(c2ccc(Cl)cc2)C1 + CC(CO)NC(=O)c1cc(-c2ccc(Cl)cc2)nn(-c2cnn(C)c2)c1=O
6. Nc1ncn(C2CC(O)C(CO)O2)c(=O)n1 (stereo not drawn) + Cc1cncc(-c2nc(NCCc3c[nH]c4ccccc34)c3ncn(C(C)C)c3n2)c1

Response line:
1: 58.7%; 2: 80.2%; 3: 3.71%; 4: 110%; 5: 101%; 6: 143%

Hey, quick one: what's viability, T/C for each of these?
1. Nc1ccn(C2OC(CO)C(O)C2(F)F)c(=O)n1 (stereo not drawn) + Cc1ccccc1N=Nc1ccc(NC(=O)c2ccnn2C)c(C)c1
2. NS(=O)(=O)OCC1CC(n2ccc3c(NC4CCc5ccccc54)ncnc32)CC1O (stereo not drawn) + Cc1cncc(-c2nc(NCCc3c[nH]c4ccccc34)c3ncn(C(C)C)c3n2)c1
3. COc1cccc2c1C(=O)c1c(O)c3c(c(O)c1C2=O)CC(O)(C(=O)CO)CC3OC1CC(N)C(O)C(C)O1 (stereo not drawn) + CC(CO)NC(=O)c1cc(-c2ccc(Cl)cc2)nn(-c2cnn(C)c2)c1=O
4. O=C(c1cc(Cc2n[nH]c(=O)c3ccccc23)ccc1F)N1CCN(C(=O)C2CC2)CC1 + CC(CO)NC(=O)c1cc(-c2ccc(Cl)cc2)nn(-c2cnn(C)c2)c1=O

Response line:
1. 16.3%
2. 35.6%
3. 0.1%
4. 90.3%

Hey, quick one: what's viability, T/C for each of these?
1. COc1cc(Nc2ncc3c(n2)-c2ccc(Cl)cc2C(c2c(F)cccc2OC)=NC3)ccc1C(=O)O + Cc1cncc(-c2nc(NCCc3c[nH]c4ccccc34)c3ncn(C(C)C)c3n2)c1
2. CC1(C)CCC(CN2CCN(c3ccc(C(=O)NS(=O)(=O)c4ccc(NCC5CCOCC5)c([N+](=O)[O-])c4)c(Oc4cnc5[nH]ccc5c4)c3)CC2)=C(c2ccc(Cl)cc2)C1 + Cc1ccccc1N=Nc1ccc(NC(=O)c2ccnn2C)c(C)c1
3. COc1cc(C2c3cc4c(cc3C(OC3OC5COC(C)OC5C(O)C3O)C3COC(=O)C23)OCO4)cc(OC)c1O (stereo not drawn) + CC(CO)NC(=O)c1cc(-c2ccc(Cl)cc2)nn(-c2cnn(C)c2)c1=O
4. Nc1ccccc1NC(=O)c1ccc(CNC(=O)OCc2cccnc2)cc1 + Cc1cncc(-c2nc(NCCc3c[nH]c4ccccc34)c3ncn(C(C)C)c3n2)c1

Response line:
61.6%
110%
20.3%
96%

Hey, quick one: what's viability, T/C for each of these?
1. CC1COCCN1c1cc(C2(S(C)(=N)=O)CC2)nc(-c2ccnc3[nH]ccc23)n1 (stereo not drawn) + CC(CO)NC(=O)c1cc(-c2ccc(Cl)cc2)nn(-c2cnn(C)c2)c1=O
2. COc1ccc([C@@H](O)c2cc(-c3ncnc4cc(N5CCOCC5)ccc34)c(F)cc2Cl)nn1 + Cc1cncc(-c2nc(NCCc3c[nH]c4ccccc34)c3ncn(C(C)C)c3n2)c1
3. CC(C)c1c(-c2ccccc2)nc2c(C#N)c[nH]n2c1=O + Cc1ccccc1N=Nc1ccc(NC(=O)c2ccnn2C)c(C)c1
4. COc1cc(C2c3cc4c(cc3C(OC3OC5COC(C)OC5C(O)C3O)C3COC(=O)C23)OCO4)cc(OC)c1O (stereo not drawn) + Cc1ccccc1N=Nc1ccc(NC(=O)c2ccnn2C)c(C)c1
5. CC1COCCN1c1cc(-c2ccnn2C)c2ccnc(-c3ccn[nH]3)c2n1 (stereo not drawn) + Cc1cncc(-c2nc(NCCc3c[nH]c4ccccc34)c3ncn(C(C)C)c3n2)c1
6. Nc1ncn(C2CC(O)C(CO)O2)c(=O)n1 (stereo not drawn) + CC(CO)NC(=O)c1cc(-c2ccc(Cl)cc2)nn(-c2cnn(C)c2)c1=O
7. NS(=O)(=O)OCC1CC(n2ccc3c(NC4CCc5ccccc54)ncnc32)CC1O (stereo not drawn) + CC(CO)NC(=O)c1cc(-c2ccc(Cl)cc2)nn(-c2cnn(C)c2)c1=O

Response line:
["47%", "116%", "105%", "99.7%", "3.82%", "52.1%", "11%"]

Hey, quick one: what's viability, T/C for each of these?
1. COc1cc(Nc2ncc3c(n2)-c2ccc(Cl)cc2C(c2c(F)cccc2OC)=NC3)ccc1C(=O)O + CC(CO)NC(=O)c1cc(-c2ccc(Cl)cc2)nn(-c2cnn(C)c2)c1=O
2. Nc1ccccc1NC(=O)c1ccc(CNC(=O)OCc2cccnc2)cc1 + CC(CO)NC(=O)c1cc(-c2ccc(Cl)cc2)nn(-c2cnn(C)c2)c1=O

Response line:
["20.5%", "30.2%"]

###

- System: 186277-243-T-J2-PDC complex spheroid growth
- measurementNotes: Anticancer human tumor 186277-243-T-J2-PDC cell line growth inhibition [AhR]; active means viability on the fitted dose curve at most 10% of control; inactive means the rest;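 also: luminescent signal used as a stand-in for viable cell amount; spheroids exposed to compounds for seven days before the viability read; 100% = DMSO vehicle control wells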
- conditionInfo: second compound 0.316 µM; first compound 0.316 µM
The categories you may choose from are Y = active, N = inactive

The following compounds have reported results that may help.
- Nc1ccn(C2OC(CO)C(O)C2(F)F)c(=O)n1 (stereo not drawn) + CC(CO)NC(=O)c1cc(-c2ccc(Cl)cc2)nn(-c2cnn(C)c2)c1=O: Y
- COc1ccc([C@@H](O)c2cc(-c3ncnc4cc(N5CCOCC5)ccc34)c(F)cc2Cl)nn1 + Cc1ccccc1N=Nc1ccc(NC(=O)c2ccnn2C)c(C)c1: N

Kindly review the next compound as well.
Prompt line: Per the assay record, what outcome was assigned to CC1COCCN1c1cc(-c2ccnn2C)c2ccnc(-c3ccn[nH]3)c2n1 (stereo not drawn) + Cc1ccccc1N=Nc1ccc(NC(=O)c2ccnn2C)c(C)c1 ?
Response line: Y

###

- Tested on: 186277-243-T-J2-PDC complex spheroid growth
- measurementNotes: Anticancer human tumor 186277-243-T-J2-PDC cell line growth inhibition [AhR];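 also: luminescent signal used as a stand-in for viable cell amount; spheroids exposed to compounds for seven days before the viability read; 100% = DMSO vehicle control wells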
- conditionInfo: second compound 1 µM; first compound 10 µM; hits give low values
measureName: viability, T/C (%)
One number for each entry, in %.

For orientation, consider the following solved cases.
• NS(=O)(=O)OCC1CC(n2ccc3c(NC4CCc5ccccc54)ncnc32)CC1O (stereo unspecified) + CC(CO)NC(=O)c1cc(-c2ccc(Cl)cc2)nn(-c2cnn(C)c2)c1=O = 1.27
• CC1COCCN1c1cc(C2(S(C)(=N)=O)CC2)nc(-c2ccnc3[nH]ccc23)n1 (stereo unspecified) + CC(CO)NC(=O)c1cc(-c2ccc(Cl)cc2)nn(-c2cnn(C)c2)c1=O = 2.94
• Nc1ccn(C2OC(CO)C(O)C2(F)F)c(=O)n1 (stereo unspecified) + Cc1cncc(-c2nc(NCCc3c[nH]c4ccccc34)c3ncn(C(C)C)c3n2)c1 = 9.89
• COc1cccc2c1C(=O)c1c(O)c3c(c(O)c1C2=O)CC(O)(C(=O)CO)CC3OC1CC(N)C(O)C(C)O1 (stereo unspecified) + Cc1cncc(-c2nc(NCCc3c[nH]c4ccccc34)c3ncn(C(C)C)c3n2)c1 = 0.26
• Nc1ccccc1NC(=O)c1ccc(CNC(=O)OCc2cccnc2)cc1 + CC(CO)NC(=O)c1cc(-c2ccc(Cl)cc2)nn(-c2cnn(C)c2)c1=O = 0.38

Prompt line: I have this molecule here, O=C(C=Cc1cccc(S(=O)(=O)Nc2ccccc2)c1)NO + Cc1cncc(-c2nc(NCCc3c[nH]c4ccccc34)c3ncn(C(C)C)c3n2)c1 , and I need its recorded viability, T/C.
Response line: 2.85

###

- Tested on: 186277-243-T-J2-PDC complex spheroid growth
- measurementNotes: Anticancer human tumor 186277-243-T-J2-PDC cell line growth inhibition [AhR];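 also: luminescent signal used as a stand-in for viable cell amount; spheroids exposed to compounds for seven days before the viability read; 100% = DMSO vehicle control wells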
- conditionInfo: second compound 1 µM; first compound 1 µM; hits give low values
- From the text: Multicellular complex tumor spheroid response to aryl hydrocarbon receptor antagonists in combination with a variety of drugs and investigational agents in selected tumor cell lines […] Compounds. […] If the clinical Cmax for an agent had not been determined, the highest concentration tested was 10 microM (Table 1). […]
Could you please report measured viability, T/C for the items listed next?
Numbers only, in %.

• CC1COCCN1c1cc(-c2ccnn2C)c2ccnc(-c3ccn[nH]3)c2n1 (stereo unspecified) + Cc1ccccc1N=Nc1ccc(NC(=O)c2ccnn2C)c(C)c1 = 7.1
• O=C(C=Cc1cccc(S(=O)(=O)Nc2ccccc2)c1)NO + Cc1ccccc1N=Nc1ccc(NC(=O)c2ccnn2C)c(C)c1 = 84.7
• COc1cccc2c1C(=O)c1c(O)c3c(c(O)c1C2=O)CC(O)(C(=O)CO)CC3OC1CC(N)C(O)C(C)O1 (stereo unspecified) + Cc1cncc(-c2nc(NCCc3c[nH]c4ccccc34)c3ncn(C(C)C)c3n2)c1 = 0.08
• Nc1ncn(C2CC(O)C(CO)O2)c(=O)n1 (stereo unspecified) + Cc1cncc(-c2nc(NCCc3c[nH]c4ccccc34)c3ncn(C(C)C)c3n2)c1 = 157
• O=C(c1cc(Cc2n[nH]c(=O)c3ccccc23)ccc1F)N1CCN(C(=O)C2CC2)CC1 + Cc1cncc(-c2nc(NCCc3c[nH]c4ccccc34)c3ncn(C(C)C)c3n2)c1 = 115

Then there is this molecule:
Prompt line: I have this molecule here, NS(=O)(=O)OCC1CC(n2ccc3c(NC4CCc5ccccc54)ncnc32)CC1O (stereo unspecified) + Cc1ccccc1N=Nc1ccc(NC(=O)c2ccnn2C)c(C)c1 , and I need its recorded viability, T/C.
Response line: 38.6
